Tmax values for the compounds below.
protocol summary: Tmax in Sprague-Dawley rat at 5 mg/kg, po by LC-MS/MS analysis
Type: ADME, organism-based
test settings: in vivo
Express the result in min but write the number alone.

smiles text: CC(C)(C)c1cc(NC(=O)Nc2ccc(-c3c[nH]c4ncnc(N)c34)cc2F)no1
Tmax / min: 52.8
--
smiles text: C=CCn1cc(-c2ccc(NC(=O)Nc3cc(C(C)(C)C)on3)cc2)c2c(N)ncnc21
Tmax / min: 45
--
smiles text: C#CCn1cc(-c2ccc(NC(=O)Nc3cc(C(C)(C)C)on3)cc2)c2c(N)ncnc21
Tmax / min: 49.8
--
smiles text: CC(C)(C)c1cc(NC(=O)Nc2ccc(-c3c[nH]c4ncnc(N)c34)cc2)no1
Tmax / min: 16.8
--
smiles text: CC(C)(C)c1cc(NC(=O)Nc2ccc(-c3cn(CCCCO)c4ncnc(N)c34)cc2)no1
Tmax / min: 18.6

Task item: What does the record list as Tmax for CC(C)n1cc(-c2ccc(NC(=O)Nc3cc(C(C)(C)C)on3)cc2)c2c(N)ncnc21 ?
Reply: 30

Task item: What does the record list as Tmax for CC(C)(C)c1cc(NC(=O)Nc2ccc(-c3cn(CC#N)c4ncnc(N)c34)cc2)no1 ?
Reply: 26.4

====

target under test: Receptor-type tyrosine-protein kinase FLT3 (Homo sapiens, UniProt P36888, R834Q)
protocol summary: Binding affinity to human partial length FLT3 R834Q mutant (V592 to Y969 residues) expressed in HEK293 cells measured after 1 hr by qPCR analysis
measurement name: pKd
Quick note: pKd means taking -log10 of the concentration in moles per liter.

Task item: Reported pKd for Receptor-type tyrosine-protein kinase FLT3 (Homo sapiens, UniProt P36888, R834Q), given C=CCn1cc(-c2ccc(NC(=O)Nc3cc(C(C)(C)C)on3)cc2)c2c(N)ncnc21 ?
Reply: 7.99

====

target under test: Mast/stem cell growth factor receptor Kit (Homo sapiens, UniProt P10721)
Sequence (P10721 whole entry): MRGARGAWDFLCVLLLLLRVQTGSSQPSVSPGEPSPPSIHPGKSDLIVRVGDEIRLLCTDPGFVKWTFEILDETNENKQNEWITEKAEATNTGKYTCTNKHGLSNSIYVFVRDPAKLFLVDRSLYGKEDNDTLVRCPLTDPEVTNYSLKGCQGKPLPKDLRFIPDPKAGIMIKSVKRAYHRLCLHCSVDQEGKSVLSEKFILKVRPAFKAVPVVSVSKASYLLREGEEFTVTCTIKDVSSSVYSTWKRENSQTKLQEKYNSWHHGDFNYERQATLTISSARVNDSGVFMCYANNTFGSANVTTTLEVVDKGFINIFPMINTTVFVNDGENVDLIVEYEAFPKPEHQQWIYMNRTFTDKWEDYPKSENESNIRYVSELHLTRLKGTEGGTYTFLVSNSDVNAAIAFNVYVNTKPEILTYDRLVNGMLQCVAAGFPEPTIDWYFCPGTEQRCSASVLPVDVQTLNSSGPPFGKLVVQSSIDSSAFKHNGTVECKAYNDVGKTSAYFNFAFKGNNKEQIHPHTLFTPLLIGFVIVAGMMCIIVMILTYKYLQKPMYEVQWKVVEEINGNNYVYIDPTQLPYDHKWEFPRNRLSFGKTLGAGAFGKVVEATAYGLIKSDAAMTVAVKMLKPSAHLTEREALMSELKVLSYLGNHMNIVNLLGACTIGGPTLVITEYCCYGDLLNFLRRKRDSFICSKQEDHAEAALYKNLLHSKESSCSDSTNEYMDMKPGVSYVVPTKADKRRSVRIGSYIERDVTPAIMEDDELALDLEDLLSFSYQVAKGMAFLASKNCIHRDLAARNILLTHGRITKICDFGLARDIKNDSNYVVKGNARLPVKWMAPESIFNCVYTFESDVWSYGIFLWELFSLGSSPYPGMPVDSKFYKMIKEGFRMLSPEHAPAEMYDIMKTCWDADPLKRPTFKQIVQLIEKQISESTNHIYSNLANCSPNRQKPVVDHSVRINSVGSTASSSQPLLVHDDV
protocol summary: Inhibition of recombinant human c-Kit (544 to end residues) using poly(Glu, Tyr) 4:1 as substrate measured after 40 mins in presence of [gamma-33P]-ATP by scintillation counting analysis
pIC50: −log10 of the molar value.
measurement name: pIC50

Task item: What does the record list as pIC50 for C=CCn1cc(-c2ccc(NC(=O)Nc3cc(C(C)(C)C)on3)cc2)c2c(N)ncnc21 ?
Reply: < 6.52

====

IC50 values for the molecules below.
System: BaF3
protocol summary: cells
test settings: Mus musculus, BaF3, 72 h
Description: Antiproliferative activity against mouse BAF3 cells harboring FLT3-ITD-F691L mutant measured after 72 hrs by MTT assay
Express the result in µM but write the number alone.

Sample answers from the record:
smiles text: CC(C)(C)c1cc(NC(=O)Nc2ccc(-c3cn(CC#N)c4ncnc(N)c34)cc2F)no1
target under test: BaF3
measurement name: IC50
unit descriptor: µM
reported value: 0.00984
--
smiles text: CC#CCn1cc(-c2ccc(NC(=O)Nc3cc(C(C)(C)C)on3)cc2)c2c(N)ncnc21
target under test: BaF3
measurement name: IC50
unit descriptor: µM
reported value: 0.0512
--
smiles text: CC(C)(C)c1cc(NC(=O)Nc2ccc(-c3cn(CCCN4CCOCC4)c4ncnc(N)c34)cc2)no1
target under test: BaF3
measurement name: IC50
unit descriptor: µM
reported value: 0.0321
--
smiles text: CCCn1cc(-c2ccc(NC(=O)Nc3cc(C(C)(C)C)on3)cc2)c2c(N)ncnc21
target under test: BaF3
measurement name: IC50
unit descriptor: µM
reported value: 0.0721
--
smiles text: C=C(C)Cn1cc(-c2ccc(NC(=O)Nc3cc(C(C)(C)C)on3)cc2)c2c(N)ncnc21
target under test: BaF3
measurement name: IC50
unit descriptor: µM
reported value: 0.0578
--
smiles text: C#CCn1cc(-c2ccc(NC(=O)Nc3cc(C(C)(C)C)on3)c(F)c2)c2c(N)ncnc21
target under test: BaF3
measurement name: IC50
unit descriptor: µM
reported value: 0.0161
--
smiles text: C=CCCCCn1cc(-c2ccc(NC(=O)Nc3cc(C(C)(C)C)on3)cc2)c2c(N)ncnc21
target under test: BaF3
measurement name: IC50
unit descriptor: µM
reported value: 0.228
--
smiles text: CC(C)(C)c1cc(NC(=O)Nc2ccc(-c3cn(CCCCO)c4ncnc(N)c34)cc2)no1
target under test: BaF3
measurement name: IC50
unit descriptor: µM
reported value: 0.0136
--
smiles text: C=CCCCn1cc(-c2ccc(NC(=O)Nc3cc(C(C)(C)C)on3)cc2)c2c(N)ncnc21
target under test: BaF3
measurement name: IC50
unit descriptor: µM
reported value: 0.2
--
smiles text: CCn1cc(-c2ccc(NC(=O)Nc3cc(C(C)(C)C)on3)cc2)c2c(N)ncnc21
target under test: BaF3
measurement name: IC50
unit descriptor: µM
reported value: 0.0285

Task item: What does the record list as IC50 for CC(C)(C)c1cc(NC(=O)Nc2ccc(-c3cn(CCN4CCN(S(C)(=O)=O)CC4)c4ncnc(N)c34)cc2)no1 ?
Reply: 0.086

Task item: What does the record list as IC50 for C=CCCn1cc(-c2ccc(NC(=O)Nc3cc(C(C)(C)C)on3)cc2)c2c(N)ncnc21 ?
Reply: 0.0918

Task item: What does the record list as IC50 for CC(C)(C)OC(=O)n1cc(-c2ccc(NC(=O)Nc3cc(C(C)(C)C)on3)cc2)c2c(N)ncnc21 ?
Reply: 0.00892

Task item: What does the record list as IC50 for CCOCCn1cc(-c2ccc(NC(=O)Nc3cc(C(C)(C)C)on3)c(F)c2)c2c(N)ncnc21 ?
Reply: 0.0427

Task item: What does the record list as IC50 for CCN(CC)C(=O)n1cc(-c2ccc(NC(=O)Nc3cc(C(C)(C)C)on3)cc2)c2c(N)ncnc21 ?
Reply: 0.0282

Task item: What does the record list as IC50 for CC(C)(C)c1cc(NC(=O)Nc2ccc(-c3c[nH]c4ncnc(N)c34)cc2F)no1 ?
Reply: 0.0107

Task item: What does the record list as IC50 for CCCCn1cc(-c2ccc(NC(=O)Nc3cc(C(C)(C)C)on3)cc2)c2c(N)ncnc21 ?
Reply: 0.209

Task item: What does the record list as IC50 for CC(C)(C)c1cc(NC(=O)Nc2ccc(-c3cn(CCC#N)c4ncnc(N)c34)cc2)no1 ?
Reply: 0.0196

Task item: What does the record list as IC50 for CN(C)CCn1cc(-c2ccc(NC(=O)Nc3cc(C(C)(C)C)on3)cc2)c2c(N)ncnc21 ?
Reply: 0.085

Task item: What does the record list as IC50 for CCC#CCn1cc(-c2ccc(NC(=O)Nc3cc(C(C)(C)C)on3)cc2)c2c(N)ncnc21 ?
Reply: 0.148

Task item: What does the record list as IC50 for COCCn1cc(-c2ccc(NC(=O)Nc3cc(C(C)(C)C)on3)c(F)c2)c2c(N)ncnc21 ?
Reply: 0.0394

Task item: What does the record list as IC50 for C#CCn1cc(-c2ccc(NC(=O)Nc3cc(C(C)(C)C)on3)cc2)c2c(N)ncnc21 ?
Reply: 0.0139
